spermine attenuation ratio by entry:
Target: Glutamate NMDA receptor
Assay: Displacement of [3H]MK801 from rat brain NMDA receptor in presence of 30 uM spermine

{"columns": ["compound", "spermine attenuation ratio"],
 "data": [
  ["NCCCCc1ccc(CCNC(=O)CNC(=O)CN)s1", 5.48],
  ["NCCCCc1ccc(Cc2ccc(CCCCN)s2)s1", 16.8],
  ["NCCCCc1ccc(CCCCNC(=O)CC(N)c2ccccc2)s1 (centres undefined)", 15],
  ["NCCCCCCCCc1ccc(CCCCN)s1", 15.1],
  ["NCCCCCCCCNC(=O)CCN", 75],
  ["N=C(N)NCCCCCCCCc1ccc(CCCNC(=N)N)s1", 6.29],
  ["NCCCCc1ccc(CCCCN(Cc2ccccc2)C(=O)C[C@@H](N)Cc2ccccc2)s1", 1.71],
  ["NCCCCc1ccc(CCCCN(CC[C@@H](N)Cc2ccccc2)Cc2ccccc2)s1", 1.66],
  ["CC(CN)C(=O)NCCCCc1ccc(CCCCN)s1 (centres undefined)", 10.3],
  ["NCCCCc1ccc(CCCCNCCCN)s1", 29],
  ["N=C(N)NCCCCCCCCc1ccc(CCCCNC(=N)N)s1", 3.95],
  ["CC(N)CC(=O)NCCCCc1ccc(CCCCN)s1 (centres undefined)", 65.4],
  ["NCCCCc1ccc(CCOCCOCCN)s1", 16.8],
  ["NCCCCCCCCc1ccc(CCCN)s1", 9.57],
  ["NCCCCc1ccc(CCCCNC(=O)CCN)s1", 51.4],
  ["NCCCCc1ccc(CCCCNC(=O)C(CN)c2ccccc2)s1 (centres undefined)", 10.1],
  ["NCCCCCCCCCCCCN", 34.6],
  ["N=C(N)NCCCCCCCc1ccc(CCCNC(=N)N)s1", 7.47],
  ["N=C(N)NCCCCCCc1ccc(CCNC(=N)N)s1", 23.4]
]}

----------
Reported spermine attenuation ratio values for a set of molecules
Target: Glutamate NMDA receptor
Assay: Displacement of [3H]MK-801 from NMDA receptor in rat brain in presence of 100 uM spermine
Assay type: tissue-based

{"columns": ["smiles repr", "spermine attenuation ratio"],
 "data": [
  ["NCCCCCCCCc1ccc(CC2CCNCC2)s1", 9.07],
  ["c1ccc(CNCCCCCCCCc2ccc(CCCCNCc3ccccc3)s2)cc1", 0.98],
  ["C=CCNCCCCCCCCc1ccc(CCCCNCC=C)s1", 6.57],
  ["NCCCCC#CCCCCCCCCN", 5.38],
  ["NCCCCCCCCc1ccc(CCCCN)cc1", 7.95],
  ["NCCCCCCCCc1ccc(Cc2ccccc2CN)s1", 2.96],
  ["CN(C)CCCCCCCCc1ccc(CC2CCNCC2)s1", 7.67],
  ["Cc1cc(CCCCN)sc1CCCCCCCCN", 3.9],
  ["CNCCCCCCCCc1ccc(CC2CCNCC2)s1", 8.58],
  ["CCc1cc(CCCCN)sc1CCCCCCCCN", 2.67],
  ["NCCCCCCCCc1ccc(CCCCN)s1", 8.84],
  ["CN(C)CCCCCCCCc1ccc(CCCCN(C)C)s1", 2.79],
  ["NCCCCCCCCCCCCCCN", 6.94],
  ["CCCNCCCCCCCCc1ccc(CCCCNCCC)s1", 2.98],
  ["Cc1cc(CCCCCCCCN)sc1CCCCN", 4.07],
  ["CNCCCCCCCCc1ccc(CCCCNC)s1", 7.7]
]}

----------
Biological target: Glutamate NMDA receptor
Assay: Stimulation of [3H]MK-801 binding to rat brain NMDA receptor

{"columns": ["smiles repr", "EC50"],
 "data": [
  ["NCCCCc1ccc(CCNCCNCCN)s1", "1900 nM"]
]}

These measurements were taken from ChEMBL document CHEMBL1142883.
